target: human catalytic domain HDAC4 protein (amino acids 648-1032) (Homo sapiens (Human), UniProt P56524)
Sequence (P56524 648-1032): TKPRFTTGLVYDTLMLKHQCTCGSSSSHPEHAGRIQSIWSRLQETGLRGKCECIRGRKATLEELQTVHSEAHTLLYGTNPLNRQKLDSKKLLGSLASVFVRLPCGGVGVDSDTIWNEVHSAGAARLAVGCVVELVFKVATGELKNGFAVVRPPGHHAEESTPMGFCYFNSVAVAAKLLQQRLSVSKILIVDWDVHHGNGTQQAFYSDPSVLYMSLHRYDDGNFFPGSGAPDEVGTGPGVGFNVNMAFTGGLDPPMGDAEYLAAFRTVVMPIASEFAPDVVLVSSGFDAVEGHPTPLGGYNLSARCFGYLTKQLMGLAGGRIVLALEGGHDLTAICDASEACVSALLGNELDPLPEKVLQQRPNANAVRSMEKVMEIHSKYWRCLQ
Counter-ions that a name gives are not always drawn.
propertyMeasured: IC50 (nM)

Recorded IC50, per entry:
>  <compound>
C[C@H](CN1CCC[C@@H]1C)NC(=O)c1ccc(-c2noc(C(F)(F)F)n2)c(F)c1 [Example 23, formate]

>  <readoutNumber>
9

$$$$
>  <compound>
C[C@H](CN1CCCC(OC(F)F)C1)NC(=O)c1ccc(-c2noc(C(F)(F)F)n2)cc1 (single isomer, unassigned) [Example 10]

>  <readoutNumber>
3

$$$$
>  <compound>
O=C(NCCN1CC2CCC(C2)C1)c1ccc(-c2noc(C(F)(F)F)n2)cc1

>  <readoutNumber>
140

$$$$
>  <compound>
C[C@H](CN1CCCCCC1)NC(=O)c1ccc(-c2noc(C(F)(F)F)n2)cc1

>  <readoutNumber>
11

$$$$
>  <compound>
C[C@H](CN1CCCC(OC(F)F)C1)NC(=O)c1ccc(-c2noc(C(F)(F)F)n2)cc1 (single isomer, unassigned) [Example 9]

>  <readoutNumber>
21

$$$$
>  <compound>
C[C@H](CN1CC2CCC2C1)NC(=O)c1ccc(-c2noc(C(F)(F)F)n2)cc1 (some centres unmarked)

>  <readoutNumber>
4

$$$$
>  <compound>
O=C(N[C@@H](CN1CCCC1)C1CC1)c1ccc(-c2noc(C(F)(F)F)n2)cc1

>  <readoutNumber>
77

$$$$
>  <compound>
C[C@H](CN1CC(c2ccccc2)C1)NC(=O)c1ccc(-c2noc(C(F)(F)F)n2)cc1

>  <readoutNumber>
14

$$$$

I. C[C@H](CN1CCC[C@@H]1C)NC(=O)c1ccc(-c2noc(C(F)(F)F)n2)cn1
II. C[C@H](CN1CC2CCC(C2)C1)NC(=O)c1ccc(-c2noc(C(F)(F)F)n2)cc1
III. C[C@H](CN1CC2CCCC21)NC(=O)c1ccc(-c2noc(C(F)(F)F)n2)cc1 (single isomer, unassigned) [Example 21]
Rank items: key IC50, increasing. Provide the labels, sequenced as the question asks.
III, II, I

A. C[C@H](CN1CC2CC2C1)NC(=O)c1ccc(-c2noc(C(F)(F)F)n2)cc1 (some centres unmarked)
B. C[C@H](CN1CCC2(CC1)CC2)NC(=O)c1ccc(-c2noc(C(F)(F)F)n2)cc1
Which value of IC50 is numerically greater: that of A or that of B ? Write down the label attached to your selection.
B

###

target: human catalytic domain HDAC4 protein (amino acids 648-1032) (Homo sapiens (Human), UniProt P56524)
pIC50: −log10 of the molar value. Where a name gives a salt, the structure may show the parent alone.
propertyMeasured: pIC50

>  <molecule>
C[C@H](CN1CC2CCCC21)NC(=O)c1ccc(-c2noc(C(F)(F)F)n2)cc1 (single isomer, unassigned) [Example 20]

>  <readoutNumber>
7.66

$$$$
>  <molecule>
C[C@H](CN1CCc2ccncc2C1)NC(=O)c1ccc(-c2noc(C(F)(F)F)n2)cc1 [Example 18]

>  <readoutNumber>
8.22

$$$$
>  <molecule>
C[C@H](CN1CC2C(C1)C2(C)C)NC(=O)c1ccc(-c2noc(C(F)(F)F)n2)cc1 (stereo partly shown) [Example 22]

>  <readoutNumber>
7.70

$$$$

1. O=C(N[C@H](CN1CCCC1)C1CC1)c1ccc(-c2noc(C(F)(F)F)n2)cc1 [Example 5]
2. C[C@H](CN1CCC12CCC2)NC(=O)c1ccc(-c2noc(C(F)(F)F)n2)cc1 [Example 14]
3. Cc1cc(C(=O)N[C@H](C)CN2CCC[C@@H]2C)ccc1-c1noc(C(F)(F)F)n1 [Example 1, formate]
4. C[C@H](CN1CCc2ccccc2C1)NC(=O)c1ccc(-c2noc(C(F)(F)F)n2)cc1 [Example 7]
Output the entries ranked by pIC50 from maximum down to minimum. Answer by listing the labels in the requested order.
4, 2, 1, 3
(4: 8.05, 2: 7.80, 1: 7.32, 3: 7.00)

Origin of measurements: patent US10053434B2
